# EXPERIMENTAL_SYSTEM: T1, mOrai1-hOrai1 ECL2 (KPPAE) protein (human/mouse chimera, UniProt Q8BWG9 1-304 (mouse entry))
# T1 construct: also called Ch
# T1 sequence (Q8BWG9 other isoform, or with tags, fused parts or gaps): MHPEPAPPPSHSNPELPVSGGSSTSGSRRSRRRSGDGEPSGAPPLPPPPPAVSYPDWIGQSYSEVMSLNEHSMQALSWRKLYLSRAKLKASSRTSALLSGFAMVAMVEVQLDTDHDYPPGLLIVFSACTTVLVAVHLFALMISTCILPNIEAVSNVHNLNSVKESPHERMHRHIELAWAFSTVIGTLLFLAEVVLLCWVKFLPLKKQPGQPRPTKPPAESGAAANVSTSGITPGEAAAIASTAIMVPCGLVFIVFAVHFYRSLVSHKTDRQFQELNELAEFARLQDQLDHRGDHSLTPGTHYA
# EXPERIMENTAL_PROTOCOL: FACS, 293EBNA
# Set-up: concentration or dose not given beside the values
ASSAY_METRIC: POC (percent of control, FACS Geo Mean relative to binding to Ch. 1)

// known answers, use as guide
[[record]]
binder = "mAb 2D2.1 (antibody, human IgG2, lambda, V domains shown, fully human IgG2 lambda, Campaign 1; also called mAb 2D.1) VH: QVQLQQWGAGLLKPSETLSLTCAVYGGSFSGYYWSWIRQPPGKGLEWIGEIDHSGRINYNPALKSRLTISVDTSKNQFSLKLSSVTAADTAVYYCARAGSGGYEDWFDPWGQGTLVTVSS VL: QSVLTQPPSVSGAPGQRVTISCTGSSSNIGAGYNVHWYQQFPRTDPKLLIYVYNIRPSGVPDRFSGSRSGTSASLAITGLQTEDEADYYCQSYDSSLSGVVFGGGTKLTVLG"
value_reported = "< 1%"

[[record]]
binder = "mAb 5B5.2 (antibody, human IgG2, lambda, V domains shown, fully human IgG2 lambda, Campaign 2; same chains as 5B5.1) VH: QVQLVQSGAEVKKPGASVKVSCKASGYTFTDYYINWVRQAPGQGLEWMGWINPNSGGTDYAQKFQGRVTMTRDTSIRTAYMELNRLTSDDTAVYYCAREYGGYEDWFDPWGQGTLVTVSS VL: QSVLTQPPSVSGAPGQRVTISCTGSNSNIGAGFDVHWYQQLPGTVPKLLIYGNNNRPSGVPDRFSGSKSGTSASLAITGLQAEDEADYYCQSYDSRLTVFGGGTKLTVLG"
value_reported = "< 1%"


Shift focus to the following entry.
// recorded POC (percent of control, FACS Geo Mean relative to binding to Ch. 1) for mAb 5A4.2 (antibody, human IgG2, lambda, V domains shown, fully human IgG2 lambda, Campaign 2) VH: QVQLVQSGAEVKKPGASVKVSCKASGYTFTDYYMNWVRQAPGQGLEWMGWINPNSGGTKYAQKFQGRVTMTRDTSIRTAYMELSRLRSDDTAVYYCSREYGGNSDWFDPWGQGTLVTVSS VL: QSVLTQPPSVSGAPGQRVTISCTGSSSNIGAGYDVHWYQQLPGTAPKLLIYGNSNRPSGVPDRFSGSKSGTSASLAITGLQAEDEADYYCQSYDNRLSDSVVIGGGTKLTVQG : < 1%

Cited source for all entries: patent US20120231006A1
